target: CDC2 (p34^cdc2) (Homo sapiens, UniProt P06493); construct: made in house; host or cells: Sf9 insect cells (baculovirus co-infection); assay: CDK inhibition assay, p34cdc2 kinase (histone H1 phosphorylation); format: biochemical; conditions: 1 mg/ml histone H1, 15 μM ATP, 30° C., 10 min
Sequence (P06493 whole entry, species assumed): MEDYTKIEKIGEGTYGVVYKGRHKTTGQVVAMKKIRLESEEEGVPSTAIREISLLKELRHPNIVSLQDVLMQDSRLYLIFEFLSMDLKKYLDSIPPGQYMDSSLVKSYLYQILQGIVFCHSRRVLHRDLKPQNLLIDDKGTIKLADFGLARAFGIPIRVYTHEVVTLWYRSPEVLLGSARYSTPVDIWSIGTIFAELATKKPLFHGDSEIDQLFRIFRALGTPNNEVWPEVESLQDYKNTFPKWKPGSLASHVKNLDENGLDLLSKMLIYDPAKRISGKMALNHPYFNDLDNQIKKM
Sequence (P14635 whole entry partner, species assumed): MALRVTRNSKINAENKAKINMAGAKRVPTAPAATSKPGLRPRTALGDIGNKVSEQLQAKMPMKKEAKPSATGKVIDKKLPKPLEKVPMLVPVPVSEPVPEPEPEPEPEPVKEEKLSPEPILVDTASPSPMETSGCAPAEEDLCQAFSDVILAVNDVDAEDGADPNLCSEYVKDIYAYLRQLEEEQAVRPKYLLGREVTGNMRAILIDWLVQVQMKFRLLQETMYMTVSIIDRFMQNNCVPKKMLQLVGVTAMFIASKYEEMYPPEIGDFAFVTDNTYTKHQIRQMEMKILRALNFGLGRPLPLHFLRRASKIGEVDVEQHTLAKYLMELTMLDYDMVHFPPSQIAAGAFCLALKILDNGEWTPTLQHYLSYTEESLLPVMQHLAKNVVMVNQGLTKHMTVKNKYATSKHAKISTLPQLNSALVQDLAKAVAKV
Give pIC50 for every item shown.
Convention used: pIC50 is expressed as -log10 of the molar concentration.

Quick one: pIC50 for "Cn1c(S)nc2c(NCc3ccccc3)nc(NCCO)nc21" ? 4.65

Now consider "CC(C)n1c(N)nc2c(NCc3ccccc3)nc(NCCCO)nc21" and answer again. 5.07

Now consider "CC(C)n1c(O)nc2c(NCc3ccccc3)nc(NCCCO)nc21" and answer again. 5.19

Now consider "CC[C@H](CO)Nc1nc(NCc2ccccc2)c2nc(NCN)n(C(C)C)c2n1" and answer again. 3.74

Now consider "CC(C)n1c(NCCO)nc2c(NCc3ccccc3)nc(NCCCO)nc21" and answer again. 3.84

Now consider "CC[C@H](CO)Nc1nc(NCc2ccccc2)c2nc(F)n(C(C)C)c2n1" and answer again. 6.42

Now consider "CC(C)n1c(Br)nc2c(NCc3ccccc3)nc(NCCCO)nc21" and answer again. 4.89

Now consider "Cn1c(O)nc2c(NCc3ccccc3)nc(NCCO)nc21" and answer again. 4.87

Now consider "Cn1c(NCCO)nc2c(NCc3ccccc3)nc(NCCO)nc21" and answer again. 3.90

Reference source: patent US6552192B1
